For each of the molecules below, state its GR50 PAPRH.
# Tested on: PAPRH: common poppy (Papaver rhoeas)
# method: Post-emergent Test III, herbicidal activity in wheat and barley
# Type: in vivo
# condition.description: Table 8; dose for 50 percent growth reduction, probit analysis; 21 d

Which GR50 PAPRH value belongs to `Nc1c(Cl)c(C(=O)O)nc(-c2ccc(Br)c(F)c2)c1Cl` ?
1 g ai/ha

Likewise for `COc1c(N)nc(-c2ccc(I)c(F)c2)nc1C(=O)O` ?
1 g ai/ha

Now the molecule `COC(=O)c1nc(-c2ccc(C#N)c(F)c2)c(F)c(N)c1Cl`
1 g ai/ha

Try the molecule `COC(=O)c1nc(-c2ccc(I)c(F)c2)c(C)c(N)c1Cl`
1 g ai/ha

###

# Test system: LAMSS
# method: Post-emergent Test III, herbicidal activity in wheat and barley
# Type: in vivo
# condition.description: post-emergence, 504 h; 70 g ai/ha; read-out: Visual Growth Reduction (%) 21 Days After Application LAMSS
Please go through the items and note down their pest or weed control at 70 g/ha.

# pest or weed control at 70 g/ha lookup, item `COC(=O)c1nc(-c2ccc(F)cc2)c(F)c(N)c1Cl`
95 to 100%

Would you kindly repeat that for `Nc1c(F)c(-c2ccc(C(F)(F)F)c(F)c2F)nc(C(=O)O)c1Cl` ?
95 to 100%

Same question, `COC(=O)c1nc(-c2ccc(Br)c(F)c2F)cc(N)c1Cl` this time
85 to 94%

Similarly, `COC(=O)c1nc(-c2ccc(Br)cc2)c(F)c(N)c1Cl` ?
95 to 100%

###

Could you please report measured pest or weed control at 140 g/ha for the items listed next?
# Test system: Key Grass and Sedge Weeds as well as Grass Crops
# method: Post-emergent Test II herbicidal activity (Table 6)
# Assay type: in vivo
# condition.description: post-emergence, 336 h, SETFA: giant foxtail (Setaria faberi), 140 g ai/ha, read-out: Visual Growth Reduction (%) 14 Days After Application, SETFA

Bench note: what pest or weed control at 140 g/ha did Nc1c(F)c(-c2ccccc2)nc(C(=O)O)c1Cl [Compound 180] show?
0 to 29%

Record: COC(=O)c1nc(-c2ccc(Br)cc2)cc(N)c1Cl [Compound 67]
0 to 29%

Another compound to look at: Nc1c(F)c(-c2ccc(Br)cc2)nc(C(=O)O)c1Cl [Compound 20]
95 to 100%

// next record C#Cc1ccc(-c2nc(C(=O)O)c(Cl)c(N)c2F)cc1 [Compound 62]
95 to 100%

Let us now turn to C#Cc1ccc(-c2nc(C(=O)OC)c(Cl)c(N)c2F)c(F)c1 [Compound 121]
0 to 29%

Moving on to COC(=O)c1nc(-c2cccc(F)c2F)c(F)c(N)c1Cl [Compound 199]
0 to 29%

// same read-out, input: COc1c(N)nc(-c2ccc(I)cc2F)nc1C(=O)O [Compound 72]
75 to 84%

Then Nc1c(F)c(-c2ccc(Br)c(F)c2)nc(C(=O)O)c1Cl [Compound 21] ?
95 to 100%

Here is the next compound: N#Cc1ccc(-c2nc(C(=O)O)c(Cl)c(N)c2F)cc1F [Compound 156]
95 to 100%

Same again, this time with COc1c(N)nc(-c2ccc(Br)cc2)nc1C(=O)O [Compound 54]
75 to 84%

Can you handle Nc1c(F)c(-c2ccc(I)c(F)c2)nc(C(=O)O)c1Cl [Compound 157] next?
95 to 100%

# iterate: COC(=O)c1nc(-c2ccccc2)c(F)c(N)c1Cl [Compound 181]
0 to 29%
